biological target: cloned human V1a receptor (Homo sapiens, UniProt P37288); construct: host or cells: human brain astrocytoma 1321N1 cells; test: in vitro functional calcium mobilisation assay (FLIPR), antagonist activity, 1321N1 cells, 250 pM AVP; format: cell-based; settings: functional pKi derived from pIC50 (Equation 1), FLIPR Ca2+ mobilisation, 1321N1 cells expressing cloned human V1a receptor, read-out: Mean fpKi (Human V1a) (converted)
Sequence (P37288 whole entry): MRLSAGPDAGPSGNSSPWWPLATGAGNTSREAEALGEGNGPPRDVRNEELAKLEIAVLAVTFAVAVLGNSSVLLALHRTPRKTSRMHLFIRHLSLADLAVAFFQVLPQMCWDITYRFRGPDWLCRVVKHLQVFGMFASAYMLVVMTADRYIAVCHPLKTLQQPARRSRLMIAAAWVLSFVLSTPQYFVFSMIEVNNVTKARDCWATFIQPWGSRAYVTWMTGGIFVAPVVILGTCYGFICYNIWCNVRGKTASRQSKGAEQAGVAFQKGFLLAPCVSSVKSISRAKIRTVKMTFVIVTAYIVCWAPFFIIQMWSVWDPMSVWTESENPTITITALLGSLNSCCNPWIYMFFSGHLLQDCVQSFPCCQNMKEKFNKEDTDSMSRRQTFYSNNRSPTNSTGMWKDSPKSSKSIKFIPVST
Observation Type: Ki (nM)

Recorded Ki, per entry:
>  <Structure String>
Cc1ccccc1N1CCC(C(=O)N2Cc3cccn3Cc3ccccc32)CC1

>  <Ki, nM>
10.5

$$$$
>  <Structure String>
Cc1nc2c([nH]1)-c1cc(Cl)ccc1N(C(=O)C1CCN(c3ccc(C(C)C)cc3)CC1)CC2

>  <Ki, nM>
22.4

$$$$
>  <Structure String>
O=C(C1CCN(c2nccc(C(F)(F)F)n2)CC1)N1Cc2cnn(C3CCCCC3)c2Nc2ccccc21

>  <Ki, nM>
35.5

$$$$
>  <Structure String>
COc1cccc(N2CCC(C(=O)N3CCc4nc(N5CCOCC5)[nH]c4-c4cc(C)ccc43)CC2)n1

>  <Ki, nM>
6.31

$$$$
>  <Structure String>
Cc1ccc2c(c1)Nc1c(cnn1C)CN2C(=O)C1CCN(c2cccc(C)n2)CC1

>  <Ki, nM>
9.55

$$$$
>  <Structure String>
Cc1ccc(N2CCC(C(=O)N3CCc4nc(N5CCOCC5)[nH]c4-c4cc(C)ccc43)CC2)nc1

>  <Ki, nM>
0.977

$$$$
>  <Structure String>
Cc1ccc(N2CCC(C(=O)N3CCc4nc(N5CCN(C)CC5)[nH]c4-c4cc(Cl)ccc43)CC2)nc1

>  <Ki, nM>
1.1

$$$$
>  <Structure String>
COc1ccc(N2CCC(C(=O)N3CCc4nc(C)[nH]c4-c4cc(Cl)ccc43)CC2)cc1

>  <Ki, nM>
16.2

$$$$

A: CCn1ncc2c1Nc1cc(Cl)ccc1N(C(=O)C1CCN(c3ncccc3C)CC1)C2
B: Cc1ccc2c(c1)-c1[nH]c(N3CCOCC3)nc1CCN2C(=O)C1CCN(c2ccc(C)nc2)CC1
Field: entry with larger Ki (options A / B ). Reply with the label of the item you choose. B
(B: 1.48 nM, A: 0.912 nM)

a: Cc1ccc(N2CCC(C(=O)N3Cc4cnn(C)c4Nc4cc(Cl)ccc43)CC2)cc1
b: Cc1ccc(N2CCC(C(=O)N3CCc4nc(C)[nH]c4-c4cc(Cl)ccc43)CC2)nc1
Of a and b , whose reported Ki is numerically smaller? To answer, give the label that identifies your chosen option. a
(a: 0.617 nM, b: 6.31 nM)

a: Cc1nc2c([nH]1)-c1cc(Cl)ccc1N(C(=O)C1CCN(c3ccc(F)cc3)CC1)CC2
b: O=C(C1CCN(c2ccccc2)CC1)N1CCc2nc(Cc3ccccc3)[nH]c2-c2cc(Cl)ccc21
c: O=C(C1CCN(c2ccccn2)CC1)N1CCc2nc(C3CCCCC3)[nH]c2-c2cc(Cl)ccc21
Task field, ranking: reported Ki, descending order. API: response body holds the labels in the requested order. b, c, a

* * *

molecular target: cloned human V1a receptor (Homo sapiens, UniProt P37288); construct: host or cells: human brain astrocytoma 1321N1 cells; experiment: in vitro functional calcium mobilisation assay (FLIPR), antagonist activity, 1321N1 cells, 250 pM AVP; type: cell-based; details: functional pKi derived from pIC50 (Equation 1), FLIPR Ca2+ mobilisation, 1321N1 cells expressing cloned human V1a receptor, read-out: Mean fpKi (Human V1a) (converted)
Observation Type: Ki (nM)

// below: answered molecules
>  <Structure String>
Cc1ccc(N2CCC(C(=O)N3Cc4cnn(C)c4Nc4cc(Cl)ccc43)CC2)nc1

>  <System Tested>
cloned human V1a receptor (Homo sapiens, UniProt P37288)

>  <Ki, nM>
1.74

$$$$
>  <Structure String>
COc1cccc(N2CCC(C(=O)N3Cc4cccn4Cc4ccccc43)CC2)c1

>  <System Tested>
cloned human V1a receptor (Homo sapiens, UniProt P37288)

>  <Ki, nM>
5.62

$$$$
>  <Structure String>
N#Cc1cccc(N2CCC(C(=O)N3Cc4cccn4Cc4ccccc43)CC2)c1

>  <System Tested>
cloned human V1a receptor (Homo sapiens, UniProt P37288)

>  <Ki, nM>
25.7

$$$$
>  <Structure String>
Cc1ccc(N2CCC(C(=O)N3Cc4cnn(-c5ccccc5)c4Nc4cc(Cl)ccc43)CC2)nc1

>  <System Tested>
cloned human V1a receptor (Homo sapiens, UniProt P37288)

>  <Ki, nM>
2

$$$$
>  <Structure String>
Cc1ccc2c(c1)Cn1cccc1CN2C(=O)C1CCN(c2ccccn2)CC1

>  <System Tested>
cloned human V1a receptor (Homo sapiens, UniProt P37288)

>  <Ki, nM>
0.631

$$$$
>  <Structure String>
Cc1ccc2c(c1)Cn1cccc1CN2C(=O)C1CCN(c2ccccc2)CC1

>  <System Tested>
cloned human V1a receptor (Homo sapiens, UniProt P37288)

>  <Ki, nM>
0.234

$$$$
>  <Structure String>
CCCCc1nc2c([nH]1)CCN(C(=O)C1CCN(c3ccccn3)CC1)c1ccc(C)cc1-2

>  <System Tested>
cloned human V1a receptor (Homo sapiens, UniProt P37288)

>  <Ki, nM>
18.2

$$$$
>  <Structure String>
Cc1nc2c([nH]1)-c1ccccc1N(C(=O)C1CCN(c3ncccn3)CC1)CC2

>  <System Tested>
cloned human V1a receptor (Homo sapiens, UniProt P37288)

>  <Ki, nM>
912

$$$$
>  <Structure String>
CCn1ncc2c1Nc1cc(Cl)ccc1N(C(=O)C1CCN(c3ccc(C)cn3)CC1)C2

>  <System Tested>
cloned human V1a receptor (Homo sapiens, UniProt P37288)

>  <Ki, nM>
0.603

$$$$
>  <Structure String>
Cc1nc2c([nH]1)-c1ccccc1N(C(=O)C1CCN(c3ccccn3)CC1)CC2

>  <System Tested>
cloned human V1a receptor (Homo sapiens, UniProt P37288)

>  <Ki, nM>
151

$$$$

A: COc1ccc(N2CCC(C(=O)N3CCc4nc(N5CCOCC5)[nH]c4-c4cc(C)ccc43)CC2)nc1
B: Cc1ccc2c(c1)Nc1c(cnn1C)CN2C(=O)C1CCN(c2ccc(C)nc2)CC1
C: CCc1nc2c([nH]1)-c1cc(C)ccc1N(C(=O)C1CCN(c3cccc(C)n3)CC1)CC2
Order the records by Ki, with each subsequent value no larger than the one before. Return the labels ranked in the requested order, please. C, B, A

I: Cc1ccc(N2CCC(C(=O)N3CCc4[nH]c(CC(C)C)nc4-c4cc(C)ccc43)CC2)nc1
II: Nc1ccccc1N1CCC(C(=O)N2Cc3cccn3Cc3ccccc32)CC1
III: Cc1nc2c([nH]1)-c1cc(Cl)ccc1N(C(=O)C1CCN(c3ccccc3C)CC1)CC2
IV: O=C(C1CCN(c2ccccc2)CC1)N1CCc2nc(-c3ccccc3)[nH]c2-c2cc(Cl)ccc21
Order these by Ki, descending, and give the full ranking. Give me the labels in the order the question wants. IV, III, II, I

* * *

Molecular target: cloned human V1a receptor (Homo sapiens)
Construct: host or cells: human brain astrocytoma 1321N1 cells
Assay: in vitro functional calcium mobilisation assay (FLIPR), antagonist activity, 1321N1 cells, 250 pM AVP
Type: cell-based
Conditions: functional pKi derived from pIC50 (Equation 1), FLIPR Ca2+ mobilisation, 1321N1 cells expressing cloned human V1a receptor, read-out: Mean fpKi (Human V1a) (converted)
Excerpt: The primary assay which may be used to determine the ability of the compounds of formula (1) to inhibit the vasopressin V1a receptor is an in vitro functional calcium mobilisation assay (FLIPR) that measures antagonist activity at a cloned human V1a receptor. The assay is described below. […]
Observation Type: Ki (nM)

>  <Compound>
O=C(C1CCN(c2ccccn2)CC1)N1Cc2cccn2Cc2cc(F)ccc21 [Example 150]

>  <System Tested>
cloned human V1a receptor (Homo sapiens)

>  <Readout Unit>
nM

>  <Ki>
1.91

$$$$

a: O=C(C1CCN(c2ccccc2F)CC1)N1Cc2cccn2Cc2ccccc21 [Example 154]
b: Cn1ncc2c1Nc1ccccc1N(C(=O)C1CCN(c3ccccn3)CC1)C2 [Example 106]
Lab note: check whether a or b has the lower measured Ki. // return label of chosen record a
(a: 1.48 nM, b: 12.6 nM)

* * *

molecular target: cloned human V1a receptor (Homo sapiens); construct: host or cells: human brain astrocytoma 1321N1 cells; experiment: in vitro functional calcium mobilisation assay (FLIPR), antagonist activity, 1321N1 cells, 250 pM AVP; format: cell-based; conditions: functional pKi derived from pIC50 (Equation 1), FLIPR Ca2+ mobilisation, 1321N1 cells expressing cloned human V1a receptor, read-out: Mean fpKi (Human V1a) (converted)
Observation Type: Ki (nM)

>  <Compound>
N#Cc1ccc(N2CCC(C(=O)N3Cc4cccn4Cc4ccccc43)CC2)cc1 [Example 171]

>  <Readout Unit>
nM

>  <Ki>
214

$$$$

A: COc1ccnc(N2CCC(C(=O)N3CCc4nc(C5CCOCC5)[nH]c4-c4cc(C)ccc43)CC2)c1 [Example 41]
B: Cc1nc2c([nH]1)-c1cc(Cl)ccc1N(C(=O)C1CCN(c3ccccc3F)CC1)CC2 [Example 83]
C: CCCc1nc2c([nH]1)-c1cc(C)ccc1N(C(=O)C1CCN(c3ncccc3C)CC1)CC2 [Example 21]
D: CN1CCN(c2nc3c([nH]2)-c2cc(Cl)ccc2N(C(=O)C2CCN(c4ccccn4)CC2)CC3)CC1 [Example 51]
Sort (4 compounds) by Ki: min first. State the ranking by listing the labels in the requested order. A, C, D, B

I: Cc1cccc(N2CCC(C(=O)N3Cc4cnn(C)c4Nc4cc(C)ccc43)CC2)c1 [Example 128]
II: Cc1nc2c([nH]1)-c1cc(Cl)ccc1N(C(=O)C1CCN(c3ccccc3Cl)CC1)CC2 [Example 86]
Which is greater in Ki, the first item I or the second item II ? Response format: the label of the selected entry. II
(II: 31.6 nM, I: 1.32 nM)

A: O=C(C1CCN(c2ccc(F)cc2)CC1)N1Cc2cccn2Cc2ccccc21 [Example 156]
B: Cn1ncc2c1Nc1ccccc1N(C(=O)C1CCN(c3ncccn3)CC1)C2 [Example 98]
Quick one: lower Ki, A or B ? Returns: label corresponding to the selected item. A

a: Cn1ncc2c1Nc1cc(Cl)ccc1N(C(=O)C1CCN(c3ccccc3F)CC1)C2 [Example 134]
b: COc1ccc(N2CCC(C(=O)N3Cc4cnn(C)c4Nc4cc(Cl)ccc43)CC2)cc1 [Example 138]
Returns: the label, a or b , whose recorded Ki is the lower number. Kindly give the label for the entry you pick. a
(a: 1.74 nM, b: 2.63 nM)

Reference source: patent US20110312941A1
